# target-under-test: T1, Macaca fascicularis IL2Rγ extracellular domain expressed with a C-terminal myc-myc-hexahistidine tag (Macaca fascicularis)
# T1 construct: also called mfIL-2Rg-MMH; mfIL-2RG-MMH
# T1 chain: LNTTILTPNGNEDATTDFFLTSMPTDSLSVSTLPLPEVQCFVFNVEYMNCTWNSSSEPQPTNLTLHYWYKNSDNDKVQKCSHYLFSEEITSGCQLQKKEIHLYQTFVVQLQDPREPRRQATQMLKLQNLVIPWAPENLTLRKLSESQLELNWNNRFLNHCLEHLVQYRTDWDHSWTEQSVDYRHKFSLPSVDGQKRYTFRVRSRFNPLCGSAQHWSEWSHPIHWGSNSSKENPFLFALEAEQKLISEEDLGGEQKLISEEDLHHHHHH
# assay-overview: SPR Biacore 4000, mAb captured by anti-hFc, 37C, dissociation in PBS-T pH 7.4
Values of t1/2 strictly less than 10 min map to satisfied, and values of at least 10 min map to not satisfied.

binder: H4H12871P (antibody, human IgG4 S228P, kappa, V domains shown, anti-IL2Rγ monoclonal antibody expressed with human IgG4 Fc; also called REGN9434) VH: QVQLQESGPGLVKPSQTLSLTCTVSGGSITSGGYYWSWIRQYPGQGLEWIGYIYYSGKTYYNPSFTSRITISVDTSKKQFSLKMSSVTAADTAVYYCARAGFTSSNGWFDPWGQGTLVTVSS VL: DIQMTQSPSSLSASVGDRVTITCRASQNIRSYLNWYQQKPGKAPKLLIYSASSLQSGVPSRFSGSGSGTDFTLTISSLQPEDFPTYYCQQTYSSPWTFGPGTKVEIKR
label-value: not satisfied
//
binder: H4H13538P (antibody, human IgG4 S228P, kappa, V domains shown, anti-IL2Rγ monoclonal antibody expressed with human IgG4 Fc) VH: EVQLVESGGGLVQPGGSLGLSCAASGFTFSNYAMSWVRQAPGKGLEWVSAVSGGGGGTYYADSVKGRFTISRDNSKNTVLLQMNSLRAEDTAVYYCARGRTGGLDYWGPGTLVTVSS VL: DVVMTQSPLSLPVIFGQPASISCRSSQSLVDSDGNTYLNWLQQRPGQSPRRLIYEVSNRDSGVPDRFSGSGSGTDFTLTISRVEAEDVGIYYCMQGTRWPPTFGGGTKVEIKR
label-value: not satisfied
//
binder: H4H12884P (antibody, human IgG4 S228P, kappa, V domains shown, anti-IL2Rγ monoclonal antibody expressed with human IgG4 Fc) VH: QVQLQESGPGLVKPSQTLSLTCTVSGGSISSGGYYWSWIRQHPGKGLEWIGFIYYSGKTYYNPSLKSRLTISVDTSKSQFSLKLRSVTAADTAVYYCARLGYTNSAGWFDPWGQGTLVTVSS VL: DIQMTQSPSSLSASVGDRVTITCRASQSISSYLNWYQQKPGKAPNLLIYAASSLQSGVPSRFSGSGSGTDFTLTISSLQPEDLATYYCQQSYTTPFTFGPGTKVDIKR
label-value: satisfied
//
binder: H4H12890P (antibody, human IgG4 S228P, kappa, V domains shown, anti-IL2Rγ monoclonal antibody expressed with human IgG4 Fc) VH: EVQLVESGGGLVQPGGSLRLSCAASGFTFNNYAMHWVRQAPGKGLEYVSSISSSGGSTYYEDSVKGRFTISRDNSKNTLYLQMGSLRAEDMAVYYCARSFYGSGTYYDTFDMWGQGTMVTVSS VL: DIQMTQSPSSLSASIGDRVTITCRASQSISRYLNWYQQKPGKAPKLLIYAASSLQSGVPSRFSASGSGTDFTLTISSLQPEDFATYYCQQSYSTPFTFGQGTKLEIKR
label-value: not satisfied
//
binder: H4H12899P (antibody, human IgG4 S228P, kappa, V domains shown, anti-IL2Rγ monoclonal antibody expressed with human IgG4 Fc) VH: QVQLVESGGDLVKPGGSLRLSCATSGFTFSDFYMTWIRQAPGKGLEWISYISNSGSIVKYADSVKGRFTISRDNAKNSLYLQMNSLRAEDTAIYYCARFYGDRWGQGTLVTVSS VL: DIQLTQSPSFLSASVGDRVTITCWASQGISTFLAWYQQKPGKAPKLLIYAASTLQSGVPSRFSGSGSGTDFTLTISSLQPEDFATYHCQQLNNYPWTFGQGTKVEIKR
label-value: not satisfied
